These measurements were taken from paper PMC4336329.

Molecular target: human ether-à-go-go-related gene (hERG) potassium channel (human);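 further: peak tail current of the secondary pulse compared with the same well before compound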
Sequence (Q12809 whole entry, looked up): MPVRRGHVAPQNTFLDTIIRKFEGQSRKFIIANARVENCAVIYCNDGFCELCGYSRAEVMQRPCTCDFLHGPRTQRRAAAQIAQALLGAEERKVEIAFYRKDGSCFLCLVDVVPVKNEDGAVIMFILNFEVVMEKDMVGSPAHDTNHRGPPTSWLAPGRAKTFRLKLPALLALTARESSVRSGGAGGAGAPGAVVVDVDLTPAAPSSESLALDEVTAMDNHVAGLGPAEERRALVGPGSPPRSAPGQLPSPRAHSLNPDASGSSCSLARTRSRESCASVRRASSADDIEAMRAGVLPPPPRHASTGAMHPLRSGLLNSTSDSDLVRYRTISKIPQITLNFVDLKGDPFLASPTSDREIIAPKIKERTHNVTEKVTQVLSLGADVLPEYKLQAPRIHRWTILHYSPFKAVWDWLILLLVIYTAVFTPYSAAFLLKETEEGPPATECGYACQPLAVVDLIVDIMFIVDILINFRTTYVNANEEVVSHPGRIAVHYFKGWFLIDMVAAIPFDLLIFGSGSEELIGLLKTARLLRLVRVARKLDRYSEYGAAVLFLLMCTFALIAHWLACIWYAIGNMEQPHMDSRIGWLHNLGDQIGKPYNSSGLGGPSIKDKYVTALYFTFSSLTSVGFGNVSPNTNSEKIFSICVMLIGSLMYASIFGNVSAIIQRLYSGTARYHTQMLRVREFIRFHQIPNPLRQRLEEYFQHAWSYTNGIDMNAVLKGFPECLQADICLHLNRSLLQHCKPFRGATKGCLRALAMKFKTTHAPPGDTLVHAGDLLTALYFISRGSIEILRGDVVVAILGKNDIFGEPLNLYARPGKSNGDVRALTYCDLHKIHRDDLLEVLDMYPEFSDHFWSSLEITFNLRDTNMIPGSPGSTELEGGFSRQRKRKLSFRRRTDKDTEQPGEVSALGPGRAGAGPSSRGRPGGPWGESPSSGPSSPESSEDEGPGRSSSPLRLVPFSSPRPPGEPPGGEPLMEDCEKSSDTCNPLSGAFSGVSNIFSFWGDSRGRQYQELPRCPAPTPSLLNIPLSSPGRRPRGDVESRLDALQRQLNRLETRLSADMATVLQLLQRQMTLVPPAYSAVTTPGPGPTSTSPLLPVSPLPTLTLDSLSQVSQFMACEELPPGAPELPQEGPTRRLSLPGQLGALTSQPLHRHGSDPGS
Test: primary screen, population patch clamp on CHO cells stably expressing hERG; higher = less effect of the substance
Experimental: Briefly, Chinese hamster ovary (CHO) cells stably expressing the hERG channel were dislodged from tissue culture flasks and dispensed into PPC plates. […] During the recording, background leak currents were estimated by a 100 ms step to -80 mV from an initial holding potential of -70 mV and subtracted from the subsequent current measurement. The campaign was conducted in two phases using slight differences in recording protocol. […]
The whole screen tested about 310,000 compounds, of which about 14,000 (4.5%) showed an effect of 50% or more. Effects have a minus sign here. What follows is part of a selection rich in strong results, with near analogues and random picks from the rest.
Assign class by hERG current change (%, negative = inhibition) at 10uM: not lower than -30% means satisfied; lower than -30% means not satisfied.

Q: Evaluate O=C(Cn1cc(SCc2cccc(Cl)c2)c2ccccc21)N1CCOCC1 : hERG current change (%, negative = inhibition) at 10uM at minimum -30%?
Result: not satisfied

Q: Evaluate CN(Cc1cnn(C)c1)C(=O)C1CCC(=O)N(Cc2ccc(Cl)cc2)C1 (centres unmarked) : hERG current change (%, negative = inhibition) at 10uM at minimum -30%?
Result: satisfied

Q: Evaluate CCOc1ccccc1CN1CCN(Cc2nc3ccccc3s2)CC1CCO (centres unmarked) : hERG current change (%, negative = inhibition) at 10uM at minimum -30%?
Result: not satisfied

Q: Evaluate O=C(O)C(Cc1c[nH]c2ccccc12)N1CCS(=O)(=O)CC1 (centres unmarked) : hERG current change (%, negative = inhibition) at 10uM at minimum -30%?
Result: satisfied

Q: Evaluate Cc1ccc(OCCCCN2CCCC(C)C2)c([N+](=O)[O-])c1.O=C(O)C(=O)O (centres unmarked) : hERG current change (%, negative = inhibition) at 10uM at minimum -30%?
Result: not satisfied

Q: Evaluate CCOC(=O)c1ccc(NC(=O)CC2C(=O)N(c3ccccc3)C(=O)N2CCCOC)cc1 (centres unmarked) : hERG current change (%, negative = inhibition) at 10uM at minimum -30%?
Result: satisfied

Q: Evaluate NC(=O)C(c1ccc(Sc2ccccc2)nn1)c1ccc(Cl)cc1Cl (centres unmarked) : hERG current change (%, negative = inhibition) at 10uM at minimum -30%?
Result: not satisfied

Q: Evaluate Cc1cccc(CN2CCN(Cc3nc4c(s3)CCCC4)CC2CCO)n1 (centres unmarked) : hERG current change (%, negative = inhibition) at 10uM at minimum -30%?
Result: satisfied

Q: Evaluate CN(Cc1cnccn1)C(=O)C1CCC(=O)N(CCc2ccccc2)C1 (centres unmarked) : hERG current change (%, negative = inhibition) at 10uM at minimum -30%?
Result: satisfied

Q: Evaluate Cc1cccc(OCC(=O)Nc2ccc3c(c2)nc(CCN2CCN(c4ccccn4)CC2)n3C)c1 : hERG current change (%, negative = inhibition) at 10uM at minimum -30%?
Result: not satisfied

Q: Evaluate CCC(C)NC(=S)N1CCN(C(c2ccccc2)c2ccccc2)CC1 (centres unmarked) : hERG current change (%, negative = inhibition) at 10uM at minimum -30%?
Result: not satisfied

Q: Evaluate Cc1cc(OCCN2CCC(Cc3ccccc3)CC2)ccc1[N+](=O)[O-].O=C(O)C(=O)O : hERG current change (%, negative = inhibition) at 10uM at minimum -30%?
Result: not satisfied

Q: Evaluate O=C(OCCCN=C1NS(=O)(=O)c2ccccc21)C1CC(=O)N(c2ccc(Cl)cc2)C1 (centres unmarked) : hERG current change (%, negative = inhibition) at 10uM at minimum -30%?
Result: not satisfied

Q: Evaluate Cc1cc(OCCN2CCCCCC2)ccc1[N+](=O)[O-].O=C(O)C(=O)O : hERG current change (%, negative = inhibition) at 10uM at minimum -30%?
Result: not satisfied

Q: Evaluate CN(Cc1ccccn1)C(=O)C1CCC(=O)N(Cc2cccc(C(F)(F)F)c2)C1 (centres unmarked) : hERG current change (%, negative = inhibition) at 10uM at minimum -30%?
Result: satisfied

Q: Evaluate COc1ccccc1CCNC(=O)CNC(=O)Cc1cccc2ccccc12 : hERG current change (%, negative = inhibition) at 10uM at minimum -30%?
Result: satisfied

Q: Evaluate O=C(NCCc1nccs1)C1CCC(=O)N(CCc2ccc(Cl)cc2)C1 (centres unmarked) : hERG current change (%, negative = inhibition) at 10uM at minimum -30%?
Result: not satisfied

Q: Evaluate OCC(O)C(O)C(O)C(O)C1NCCS1 (centres unmarked) : hERG current change (%, negative = inhibition) at 10uM at minimum -30%?
Result: satisfied

Q: Evaluate COc1cccc(CN2CCN(Cc3nc4c(s3)CCCC4)CC2CCO)c1 (centres unmarked) : hERG current change (%, negative = inhibition) at 10uM at minimum -30%?
Result: not satisfied

Q: Evaluate Cc1ccc(OCC(=O)Nc2ccc(CN3CCCCC3)cc2)c(C)c1 : hERG current change (%, negative = inhibition) at 10uM at minimum -30%?
Result: not satisfied

Q: Evaluate Cc1cc(C)c(C)c(OCCCCN2CCCCC2)c1 : hERG current change (%, negative = inhibition) at 10uM at minimum -30%?
Result: not satisfied

Q: Evaluate N#Cc1c(-c2ccccc2)nc(-c2ccccc2)[nH]c1=O : hERG current change (%, negative = inhibition) at 10uM at minimum -30%?
Result: satisfied

Q: Evaluate CCOc1ccccc1CN1CCN(Cc2nc3c(s2)CCCC3)CC1CCO (centres unmarked) : hERG current change (%, negative = inhibition) at 10uM at minimum -30%?
Result: not satisfied

Q: Evaluate Cc1ccc(C2=NS(=O)(=O)N(C)C(C(=O)Nc3cc(C)n(CC(=O)N4CCCCC4)n3)=C2)cc1 : hERG current change (%, negative = inhibition) at 10uM at minimum -30%?
Result: satisfied

Q: Evaluate CN(CC1CCOCC1)C(=O)CC1C(=O)NCCN1Cc1ccc(Cl)c(F)c1 (centres unmarked) : hERG current change (%, negative = inhibition) at 10uM at minimum -30%?
Result: satisfied

Q: Evaluate COc1ccc(/C=N/NC(=O)CSc2ccccn2)cc1OC : hERG current change (%, negative = inhibition) at 10uM at minimum -30%?
Result: satisfied

Q: Evaluate CCOc1cc2sc(N3CCC(C(=O)NCCCN4CCCC4=O)CC3)nc2cc1Br : hERG current change (%, negative = inhibition) at 10uM at minimum -30%?
Result: not satisfied

Q: Evaluate CCN(CC(=O)Nc1ccc(N2CCOCC2)cc1)C(=O)Cc1ccccc1 : hERG current change (%, negative = inhibition) at 10uM at minimum -30%?
Result: satisfied

Q: Evaluate O=C(OCCN=C1NS(=O)(=O)c2ccccc21)C1CC(=O)N(c2ccc(Cl)cc2)C1 (centres unmarked) : hERG current change (%, negative = inhibition) at 10uM at minimum -30%?
Result: satisfied

Q: Evaluate N#Cc1c(-c2ccccc2)nc(-c2cccnc2)[nH]c1=O : hERG current change (%, negative = inhibition) at 10uM at minimum -30%?
Result: satisfied

Q: Evaluate CC(C)NC(=S)N1CCN(C(c2ccccc2)c2ccccc2)CC1 : hERG current change (%, negative = inhibition) at 10uM at minimum -30%?
Result: not satisfied

Q: Evaluate CN(Cc1nccs1)C(=O)C1CCC(=O)N(CCc2cccc(F)c2)C1 (centres unmarked) : hERG current change (%, negative = inhibition) at 10uM at minimum -30%?
Result: satisfied

Q: Evaluate Cc1ccc(OCCOCCN2CCCCC2)c([N+](=O)[O-])c1.O=C(O)C(=O)O : hERG current change (%, negative = inhibition) at 10uM at minimum -30%?
Result: not satisfied

Q: Evaluate CC(=O)N1Cc2cc(N)ccc2Oc2ccccc21 : hERG current change (%, negative = inhibition) at 10uM at minimum -30%?
Result: satisfied

Q: Evaluate O=C(NCc1ccco1)c1ccc(Cn2cc([N+](=O)[O-])cn2)o1 : hERG current change (%, negative = inhibition) at 10uM at minimum -30%?
Result: satisfied

Q: Evaluate CN(Cc1nccn1C)C(=O)C1CCC(=O)N(Cc2cccc(C(F)(F)F)c2)C1 (centres unmarked) : hERG current change (%, negative = inhibition) at 10uM at minimum -30%?
Result: satisfied

Q: Evaluate O=C(Cn1cc(SCc2ccc(Cl)cc2)c2ccccc21)N1CCOCC1 : hERG current change (%, negative = inhibition) at 10uM at minimum -30%?
Result: not satisfied

Q: Evaluate CCc1ccc(CN(C)C(=O)C2CCC(=O)N(Cc3ccccn3)C2)cc1 (centres unmarked) : hERG current change (%, negative = inhibition) at 10uM at minimum -30%?
Result: satisfied

Q: Evaluate Cc1ccc(C(=O)Nc2ccc(CN3CCCCC3)cc2)c(C)c1 : hERG current change (%, negative = inhibition) at 10uM at minimum -30%?
Result: not satisfied

Q: Evaluate Cc1cc(C)c(C)c(OCCOCCN2CCN(C)CC2)c1 : hERG current change (%, negative = inhibition) at 10uM at minimum -30%?
Result: satisfied
